target: COX-1 (Ovis aries, UniProt P05979); construct: purchased Cayman 560131; assay: Cyclooxygenase COX-1 inhibitory assay (Cayman COX inhibitor assay kit); format: biochemical, ovine; conditions: 10.0 µg/mL; mean ± SD, n=3; read-out: Percentage inhibition COX1
Sequence (P05979 25-600): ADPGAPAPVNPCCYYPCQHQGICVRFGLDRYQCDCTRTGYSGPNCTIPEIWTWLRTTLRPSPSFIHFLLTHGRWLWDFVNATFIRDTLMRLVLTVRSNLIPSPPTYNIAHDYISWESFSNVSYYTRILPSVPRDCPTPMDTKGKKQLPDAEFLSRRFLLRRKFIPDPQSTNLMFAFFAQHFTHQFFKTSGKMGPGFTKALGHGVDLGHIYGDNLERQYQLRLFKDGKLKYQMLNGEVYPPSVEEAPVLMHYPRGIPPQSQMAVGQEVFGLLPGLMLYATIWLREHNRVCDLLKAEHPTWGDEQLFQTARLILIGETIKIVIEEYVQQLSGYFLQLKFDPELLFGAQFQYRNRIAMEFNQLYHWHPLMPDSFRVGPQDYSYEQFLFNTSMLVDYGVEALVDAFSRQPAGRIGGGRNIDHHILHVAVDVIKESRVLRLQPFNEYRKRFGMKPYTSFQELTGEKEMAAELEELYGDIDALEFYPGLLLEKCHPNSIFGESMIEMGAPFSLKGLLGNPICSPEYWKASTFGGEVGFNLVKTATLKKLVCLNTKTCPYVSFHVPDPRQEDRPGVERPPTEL
Each entry below lists one item and its recorded inhibition at 10 µg/mL value.

molecule: CC1=CCCC2C1(C)CCC(C)C2(C)CCC(=CC(=O)O)CO (centres unmarked) [Compound 2, 16-hydroxy-cleroda-3,13-dien-15-oic acid]
measured target: COX-1 (Ovis aries, UniProt P05979)
inhibition at 10 µg/mL: 50.9%
--
molecule: CC1=CCCC2C1(C)CCC(C)C2(C)CCC1=CC(=O)OC1O (centres unmarked)
measured target: COX-1 (Ovis aries, UniProt P05979)
inhibition at 10 µg/mL: 92.9%
--
molecule: C=C1CCCC2C1(C)CCC(C)C2(C)CCC1=CC(=O)OC1O (centres unmarked)
measured target: COX-1 (Ovis aries, UniProt P05979)
inhibition at 10 µg/mL: 83.9%
--
molecule: C=C1C(O)CCC2C1(C)CCC(C)C2(C)CCC1=CC(=O)OC1O (centres unmarked)
measured target: COX-1 (Ovis aries, UniProt P05979)
inhibition at 10 µg/mL: 79.5%
--
molecule: CC1=CCCC2C1(C)CCC(C)C2(C)CCC(C=O)=CC(=O)O (centres unmarked)
measured target: COX-1 (Ovis aries, UniProt P05979)
inhibition at 10 µg/mL: 60.4%

Recorded values, source paper PMC7524750.
